Data origin: ChEMBL document CHEMBL1139364

# Test system: Rattus norvegicus
# Experimental protocol: AUC in Sprague-Dawley rat assessed as L-dopa level at 0.332 mmol/kg, po
# Format: ADME, organism-based, Plasma
# Experimental conditions: in vivo
Where a SMILES comes first, the peptide text is derived from it. [ ]: non-standard residue; d: D form. Dopa = N[C@@H](Cc1ccc(O)c(O)c1)C(=O)O
Measure: AUC (ug/hr.ml)

COC(=O)[C@H](CS)NC(=O)[C@H](Cc1ccc(O)c(O)c1)NC(C)=O (Ac-[Dopa]-Cys-OMe) : 110.62
COC(=O)[C@H](Cc1ccc(O)c(O)c1)NC(=O)[C@H](CS)NC(=O)[C@@H](CS)NC(C)=O : 432.2

a = COC(=O)[C@H](Cc1ccc(O)c(O)c1)NC(=O)[C@H](CS)NC(=O)C(C)(C)S
b = COC(=O)[C@H](Cc1ccc(O)c(O)c1)NC(=O)[C@H](CS)NC(C)=O (Ac-Cys-[Dopa]-OMe)
c = N[C@@H](Cc1ccc(O)c(O)c1)C(=O)O
d = COC(=O)[C@H](CCSC)NC(=O)[C@H](Cc1ccc(O)c(O)c1)NC(C)=O (Ac-[Dopa]-Met-OMe)
e = COC(=O)[C@H](Cc1ccc(O)c(O)c1)NC(=O)[C@H](CCSC)NC(C)=O (Ac-Met-[Dopa]-OMe)
Problem: // sort entries: AUC, high to low Ranked list of labels, please, in the requested order.
Result: e, d, a, b, c
